target: T1, AMS2b E2E1-I53-50A trimer (Hepatitis C virus genotype 2b, strain …, stabilised); experiment: ELISA; details: both partners purified
T1 construct: also called AMS2b E2E1 trimer; source: HEK293F, co-transfected with furin, purified (Strep-TactinXT, SEC); copies: 3 + 3
Value kind: binding result

HEPC74 S54L (antibody, V domains shown, human IgG1; source: HEK293F, transfected, purified (protein A/G)) VH: QVQLVQSGAEVKKPGSSVKVSCTTSGGTYINYAISWVRQAPGQGLEWVGGMSPILNTPKYAQKFQGRVTITADESTSTTYMELSSLRPEDTAVYYCARDLLKYCGGGNCHSLLVDPWGQGTLVTVSS VL: DIVMTQSPSTLSASVGDRVTISCRASQSISSWLAWYQQKPGRAPKLLIYKASSLETGVPSRFSGSGSGTEFTLTISSLQPDDFATYYCQHYNTYLFTFGPGTKVDLK: binds
HEPC74 (antibody, V domains shown, also called mature HEPC74; conventional HEPC74; source: HEK293F, transfected, purified (protein A/G)) VH: QVQLVQSGAEVKKPGSSVKVSCTTSGGTYINYAISWVRQAPGQGLEWVGGMSPISNTPKYAQKFQGRVTITADESTSTTYMELSSLRPEDTAVYYCARDLLKYCGGGNCHSLLVDPWGQGTLVTVSS VL: DIVMTQSPSTLSASVGDRVTISCRASQSISSWLAWYQQKPGRAPKLLIYKASSLETGVPSRFSGSGSGTEFTLTISSLQPDDFATYYCQHYNTYLFTFGPGTKVDLK: binds
AT1209 (antibody, V domains shown, also called mature AT1209; source: HEK293F, transfected, purified (protein A/G)) VH: QVLVQSGAEVKKPGSSVRVSCKASGDTFKTHAISWVRQAPGQGLEWVGGTVRQAPGDGLELLGGFVPILAPANDAQKFQGRVTITADGSTGPVYMDLSTLTSEDTAMYYCVTSLSEPIPRSCRGGRCYSGPFDAFGVWGQ VL: EIMLTQSPVTLSVSPGERATLSCRASQSIGTNLAWYQKPGQAPRLLIHGASTRATGVPVSFSGSGSGTEFTLTISSLQSEDFAVYYCQQYNNWPLTFGGGTKVEIK: binds
